Entries and their measured melting point follow.
measuredAttribute: melting point

>  <molecule>
CCN1C(=O)C(C(=O)Nc2cccc(C(=O)Nc3ccc(Cl)cc3)c2)c2cc(C(C)=O)ccc21 (stereo not drawn) [Preparation 3]

>  <result>
119 to 121 °C

$$$$
>  <molecule>
CCN1C(=O)C(C(=O)Nc2cccc(C(=O)Nc3ccc(Br)cc3)c2)c2cc(C(C)=O)ccc21 (stereo not drawn) [Preparation 8]

>  <result>
117 to 120 °C

$$$$
>  <molecule>
CC(=O)c1ccc2c(c1)C(C(=O)Nc1cccc(C(=O)Nc3ccccc3)c1)C(=O)N2C (stereo not drawn) [Preparation 12]

>  <result>
178 to 179 °C

$$$$
>  <molecule>
CCN1C(=O)C(C(=O)Nc2cccc(C(=O)Nc3ccc(I)cc3)c2)c2cc(C(C)=O)ccc21 (stereo not drawn) [Preparation 9]

>  <result>
205 to 210 °C

$$$$
>  <molecule>
CCN1C(=O)C(C(=O)Nc2cccc(C(=O)NC3CCCCC3)c2)c2cc(C(C)=O)ccc21 (stereo not drawn) [Preparation 2]

>  <result>
180 °C (dec.)

$$$$
>  <molecule>
CCN1C(=O)C(C(=O)Nc2cccc(C(=O)Nc3ccccc3)c2)c2cc(C(=O)c3ccccc3)ccc21 (stereo not drawn) [Preparation 10]

>  <result>
129 to 135 °C

$$$$
